The reported numbers originate from patent US7598255B2.

Target: human recombinant 5-HT2C receptor (Homo sapiens, UniProt P28335)
Sequence (P28335 33-458): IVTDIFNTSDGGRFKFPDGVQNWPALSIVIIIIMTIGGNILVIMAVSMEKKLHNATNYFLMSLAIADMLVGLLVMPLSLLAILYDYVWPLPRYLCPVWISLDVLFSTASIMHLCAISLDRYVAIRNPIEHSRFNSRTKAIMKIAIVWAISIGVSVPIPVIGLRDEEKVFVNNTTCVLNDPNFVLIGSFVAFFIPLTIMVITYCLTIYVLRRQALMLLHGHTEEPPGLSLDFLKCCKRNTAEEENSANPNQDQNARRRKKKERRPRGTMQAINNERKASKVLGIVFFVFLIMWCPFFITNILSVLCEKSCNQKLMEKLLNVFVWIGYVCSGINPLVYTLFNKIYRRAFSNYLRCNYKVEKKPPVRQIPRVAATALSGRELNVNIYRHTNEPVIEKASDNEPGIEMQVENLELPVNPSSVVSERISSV
Assay: Affinity for 5HT2 receptor binding sites, h5-HT2C, [3H]mesulergine
Conditions: CHO h5-HT2C membranes
Structures can show the parent of a compound that is named as a salt.
Sorting guide: entries reporting Ki beneath 200 nM go in the met pile, the rest go in the not met pile.

[
  {
    "compound": "CC(C)c1nc2c(c(-c3ccsc3)n1)CCN(C)C2 [Example 91, hydrochloride]",
    "group label": "not met"
  },
  {
    "compound": "FC(F)(F)c1ccc(-c2nc(Cc3ccccc3)nc3c2CNCC3)cc1",
    "group label": "not met"
  },
  {
    "compound": "Cc1ccc(-c2nc(C(C)C)nc3c2CCCNC3)cc1 [Example 66, hydrochloride]",
    "group label": "met"
  },
  {
    "compound": "CC(C)c1nc2c(c(-c3ccc(F)cc3)n1)CCC(O)C2 (centres unmarked)",
    "group label": "not met"
  },
  {
    "compound": "CC(C)c1nc2c(c(-c3ccccc3)n1)CCCNC2",
    "group label": "not met"
  },
  {
    "compound": "CC(C)Cc1nc2c(c(-c3ccc(F)cc3)n1)CNCC2",
    "group label": "not met"
  },
  {
    "compound": "CC(C)c1nc2c(c(-c3ccc(Cl)cc3)n1)CNCC2",
    "group label": "not met"
  },
  {
    "compound": "c1ccc(Cc2nc3c(c(-c4ccccc4)n2)CCNC3)cc1",
    "group label": "not met"
  },
  {
    "compound": "Cc1ccc(-c2cc(CCN)nc(Cc3ccccc3)n2)cc1",
    "group label": "not met"
  },
  {
    "compound": "CC(C)c1nc2c(c(-c3ccc(F)cc3)n1)CCNC2 [Example 80, hydrochloride]",
    "group label": "not met"
  },
  {
    "compound": "CNCc1cc(-c2ccc(F)cc2)nc(C(C)C)n1",
    "group label": "not met"
  },
  {
    "compound": "CCC(C)c1nc2c(c(-c3ccc(OC(F)(F)F)cc3)n1)CNCC2 (centres unmarked)",
    "group label": "not met"
  },
  {
    "compound": "CCC(C)c1nc2c(c(-c3cccc(F)c3)n1)CNCC2 (centres unmarked)",
    "group label": "not met"
  },
  {
    "compound": "Fc1ccc(-c2nc(Cc3ccccc3)nc3c2CCN(Cc2ccccc2)C3)cc1 [Example 70, hydrochloride]",
    "group label": "not met"
  },
  {
    "compound": "CC(C)c1nc(-c2ccccc2)c2c(n1)C(C)CN(Cc1ccccc1)C2 (centres unmarked)",
    "group label": "not met"
  },
  {
    "compound": "Fc1cccc(-c2nc(Cc3ccccc3)nc3c2CNCC3)c1",
    "group label": "not met"
  },
  {
    "compound": "Cc1cc(-c2nc(CC(C)C)nc3c2CNCC3)ccc1F",
    "group label": "not met"
  },
  {
    "compound": "CC(C)c1nc2c(c(-c3ccccc3)n1)CCNC2",
    "group label": "not met"
  },
  {
    "compound": "COc1ccc(-c2nc(Cc3ccccc3)nc3c2CCNC3)cc1",
    "group label": "not met"
  },
  {
    "compound": "CC(C)c1nc2c(c(-c3ccc(F)cc3)n1)CCC(N1CCCC1)C2 (centres unmarked)",
    "group label": "not met"
  },
  {
    "compound": "Fc1ccc(Cc2nc3c(c(-c4ccc(F)cc4)n2)CCNCC3)cc1",
    "group label": "met"
  },
  {
    "compound": "COc1ccc(-c2nc(C3CCCC3)nc3c2CCN(C)CC3)cc1",
    "group label": "met"
  },
  {
    "compound": "CC(C)N1CCc2c(nc(Cc3ccccc3)nc2-c2ccc(F)cc2)C1",
    "group label": "not met"
  },
  {
    "compound": "Fc1ccc(-c2nc(Cc3ccccc3)nc3c2CCCNC3)cc1 [Example 64, hydrochloride]",
    "group label": "met"
  },
  {
    "compound": "CC(C)c1nc2c(c(-c3ccc(F)cc3)n1)CNCC2 [Example 21, hydrochloride]",
    "group label": "not met"
  },
  {
    "compound": "Fc1ccc(-c2nc(C3CCC3)nc3c2CNCC3)cc1 [Example 5, hydrochloride]",
    "group label": "not met"
  },
  {
    "compound": "CN1CCc2nc(Cc3ccc(F)cc3)nc(-c3ccc(F)cc3)c2C1",
    "group label": "not met"
  },
  {
    "compound": "Cc1cc(-c2nc(C(C)C)nc3c2CCNC3)cs1 [Example 88, hydrochloride]",
    "group label": "met"
  },
  {
    "compound": "Fc1ccc(-c2nc(C3CCCC3)nc3c2CNCC3)cc1",
    "group label": "met"
  },
  {
    "compound": "CC(C)c1nc2c(c(-c3ccc(F)cc3)n1)CCN(C)C2 [Example 84, hydrochloride]",
    "group label": "not met"
  },
  {
    "compound": "Cc1ccc(-c2nc(Cc3ccccc3)nc3c2CNCC3)cc1",
    "group label": "not met"
  },
  {
    "compound": "Cc1ccc(-c2nc(Cc3ccccc3)nc3c2CCN(C)CC3)cc1",
    "group label": "met"
  },
  {
    "compound": "CC(C)c1nc(-c2ccsc2)c2c(n1)C(C)CNC2 (centres unmarked)",
    "group label": "not met"
  },
  {
    "compound": "Cc1nc2c(c(-c3cccc(Cl)c3)n1)CCNCC2",
    "group label": "not met"
  },
  {
    "compound": "CC(C)c1nc(-c2ccc(-c3ccc(Cl)cc3)cc2)c2c(n1)C(C)CN(Cc1ccccc1)C2 (centres unmarked)",
    "group label": "not met"
  },
  {
    "compound": "CN1CCc2nc(C3CCCC3)nc(-c3ccc(F)cc3)c2CC1",
    "group label": "met"
  },
  {
    "compound": "Cc1ccc(-c2nc(Cc3ccccc3)nc3c2CCNCC3)cc1",
    "group label": "met"
  },
  {
    "compound": "C=C1CN(C)CCc2c1nc(Cc1ccc(F)cc1)nc2-c1ccc(F)cc1",
    "group label": "met"
  }
]

###

pKi: −log10 of the molar value. Where a name gives a salt, the structure may show the parent alone.
Form: system (5-HT2A receptor (Homo sapiens, UniProt P28223)), quantity (pKi), values below.

[
  {
    "molecule": "Cc1ccc(-c2nc(C3CCCC3)nc3c2CCN(C)CC3)cc1",
    "pKi": 8.82
  },
  {
    "molecule": "CNC1CCc2c(nc(C(C)C)nc2-c2ccc(F)cc2)C1 (stereo not drawn) [Example 108, hydrochloride]",
    "pKi": 7.74
  },
  {
    "molecule": "Fc1ccc(Cc2nc3c(c(-c4ccc(F)cc4)n2)CNCC3)cc1",
    "pKi": 7.90
  },
  {
    "molecule": "c1ccc(Cc2nc3c(c(-c4ccccc4)n2)CNCC3)cc1",
    "pKi": 7.00
  },
  {
    "molecule": "CCC(C)c1nc2c(c(-c3cccc(F)c3)n1)CNCC2 (stereo not drawn)",
    "pKi": 6.70
  },
  {
    "molecule": "c1ccc(Cc2nc3c(c(-c4ccccc4)n2)CCNC3)cc1",
    "pKi": 7.60
  },
  {
    "molecule": "CC(C)c1nc2c(c(-c3ccc(F)cc3)n1)CNCC2 [Example 21, hydrochloride]",
    "pKi": 7.60
  },
  {
    "molecule": "COc1ccc(-c2nc(C3CCCC3)nc3c2CCNCC3)cc1",
    "pKi": 7.70
  },
  {
    "molecule": "CC(C)c1nc2c(c(-c3ccc(C(F)(F)F)cc3)n1)CNCC2",
    "pKi": 5.70
  }
]
